B1: VH:VL chains; a variant is named by its letters at X, in order (parent)
chain 1: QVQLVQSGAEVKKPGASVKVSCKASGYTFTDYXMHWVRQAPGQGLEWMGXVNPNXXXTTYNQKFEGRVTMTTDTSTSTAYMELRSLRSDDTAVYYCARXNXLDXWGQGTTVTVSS
chain 2: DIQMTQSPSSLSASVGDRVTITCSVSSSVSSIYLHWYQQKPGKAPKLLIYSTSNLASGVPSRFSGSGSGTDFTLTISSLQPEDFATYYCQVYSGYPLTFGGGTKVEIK

- Variants of: B1
- PROCEDURE_TEXT: yeast display scFab, FACS + sequencing
- MEASUREMENT_CONTEXT: with MET
The list shows a part of the results. The true hit rate is not given.
MEASUREMENT_KIND: antigen binding call

DRGRGSAD : binds
YRRGGAVA : binds
VRTADVGV : no binding
SEKEGDAA : no binding
VKARGSAF : binds

antigen binding call for `DAGGAAAV` is no binding

antigen binding call for `VTTKSDSV` is no binding

antigen binding call for `YKGKGSSY` is binds

antigen binding call for `DTGGGAWD` is no binding

antigen binding call for `VTTKSDVF` is no binding
